assay: in vitro; conditions: human, HK cells (human keratinocytes)
Where a SMILES comes first, the peptide text is derived from it.
Quantity kind: viability at 24 h, 1.6 µM (%)
A number alone suffices; assume %.

State the recorded viability at 24 h, 1.6 µM for this entry: CC[C@H](C)[C@H](NC(=O)[C@H](CCCCN)NC(=O)[C@H](CCCCN)NC(=O)[C@H](Cc1ccccc1)NC(=O)[C@H](CC(C)C)NC(=O)[C@H](CCCCN)NC(=O)[C@H](CCCCN)NC(=O)[C@H](CC(C)C)NC(=O)[C@H](CCCNC(=N)N)NC(=O)[C@H](CCCCN)NC(=O)[C@@H](N)Cc1ccccc1)C(=O)N[C@@H](Cc1c[nH]c2ccccc12)C(=O)N[C@@H](CC(N)=O)C(=O)N[C@@H](Cc1c[nH]c2ccccc12)C(=O)N[C@@H](CCCCN)C(=O)O [HPA3NT3] (H-FKRLKKLFKKIWNWK-OH) 100

Where these numbers come from: patent US9278121B2
